Origin of measurements: PubChem BioAssay AID2060341

# Tested on: 327498-153-R-J2-PDC multicell spheroid viability;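 note: spheroids exposed to agents for 7 days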
# ASSAY_INFO: Anticancer human tumor 327498-153-R-J2-PDC patient-derived uterine carcinosarcoma cell line growth inhibition [IpAb]; active = viability on the fitted dose curve at most 10% of control; inactive = the rest
# TEST_SETTINGS: second compound 3.16 µM; first compound 10 µM
Return exactly one item of active, inactive

Reference set (4 entries):
Cc1nc(NC(=O)N2CCCC2C(N)=O)sc1-c1ccnc(C(C)(C)C(F)(F)F)c1 (configuration not stated) + CC(C)NCC(C(=O)N1CCN(c2ncnc3c2C(C)CC3O)CC1)c1ccc(Cl)cc1 ... inactive
Cn1nccc1Nc1nccc(-c2ccn(C(CO)c3ccc(Cl)c(F)c3)c(=O)c2)n1 (configuration not stated) + CC(C)NCC(C(=O)N1CCN(c2ncnc3c2C(C)CC3O)CC1)c1ccc(Cl)cc1 ... inactive
Cn1ncc(Cl)c1-c1cc(C(=O)NC(CN)Cc2cccc(F)c2)sc1Cl (configuration not stated) + CC(C)NCC(C(=O)N1CCN(c2ncnc3c2C(C)CC3O)CC1)c1ccc(Cl)cc1 ... active
CC1(C)CCC(CN2CCN(c3ccc(C(=O)NS(=O)(=O)c4ccc(NCC5CCOCC5)c([N+](=O)[O-])c4)c(Oc4cnc5[nH]ccc5c4)c3)CC2)=C(c2ccc(Cl)cc2)C1 + CC(C)NCC(C(=O)N1CCN(c2ncnc3c2C(C)CC3O)CC1)c1ccc(Cl)cc1 ... active

Check the results log: what was the call for CCCS(=O)(=O)Nc1ccc(F)c(C(=O)c2c[nH]c3ncc(-c4ccc(Cl)cc4)cc23)c1F + CC(C)NCC(C(=O)N1CCN(c2ncnc3c2C(C)CC3O)CC1)c1ccc(Cl)cc1 ?
inactive

One more compound: C=CCn1c(=O)c2cnc(Nc3ccc(N4CCN(C)CC4)cc3)nc2n1-c1cccc(C(C)(C)O)n1 + CC(C)NCC(C(=O)N1CCN(c2ncnc3c2C(C)CC3O)CC1)c1ccc(Cl)cc1
active

One more compound: C=CC(=O)N1CCN(c2nc(=O)n(-c3c(C)ccnc3C(C)C)c3nc(-c4c(O)cccc4F)c(F)cc23)C(C)C1 (configuration not stated) + CC(C)NCC(C(=O)N1CCN(c2ncnc3c2C(C)CC3O)CC1)c1ccc(Cl)cc1
inactive
